systemName: HIV-1 nucleocapsid protein (NC) (HIV-1, UniProt P12493 378-432)
testProtocol: fluorescence anisotropy
endpoint: Kd

For CTTCTTTGGGAGTGAATTAG (ssDNA) [5'-FAM-JL587D 20-mer] , what is its reported Kd?
84.1 nM
